Target: NGF (nerve growth factor) (Homo sapiens, UniProt P01138 P01138:122-241)
Sequence (P01138 122-241, one chain of several): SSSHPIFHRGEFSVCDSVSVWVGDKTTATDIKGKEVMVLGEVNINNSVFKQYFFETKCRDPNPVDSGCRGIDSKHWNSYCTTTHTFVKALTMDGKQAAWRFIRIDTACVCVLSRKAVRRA
Assay: cell_activity; neurite; TF-1 0.081
Conditions: tags: R&D Systems; chain copies: 2
measuredMetric: IC50

1) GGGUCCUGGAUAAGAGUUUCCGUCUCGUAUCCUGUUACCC (ssRNA, as 82(48) without 5' idT; PS between A12 and A13) [SEQ ID NO: 82(60)]
0.034 nM

Values from patent US20140235701
